- Tested on: Caco-2
- ASSAY_PROTOCOL: MTS assay, colon cancer cells
- ASSAY_SETUP: Homo sapiens, Caco-2, 24 h
# pIC50 per entry
Worth noting: pIC50 values are minus log10 of concentrations stated in mol/L.

Req: Using the record for [Se]=C=NCc1ccccc1 [ISC-1, Benzyl Isoselenocyanate] , report its pIC50.
Resp: 4.89

Req: Using the record for [Se]=C=NCCCCCCc1ccccc1 [ISC-6, Phenylhexyl Isoselenocyanate] , report its pIC50.
Resp: 5.00

Req: Using the record for [Se]=C=NCCCCc1ccccc1 [ISC-4, Phenylbutyl Isoselenocyanate] , report its pIC50.
Resp: 4.92

Req: Using the record for [Se]=C=NCCc1ccccc1 [ISC-2, Phenylethyl Isoselenocyanate] , report its pIC50.
Resp: 4.96

Req: Using the record for S=C=NCc1ccccc1 [BITC, Benzyl isothiocyanate, reference compound] , report its pIC50.
Resp: 4.82
